Tested on: S. epidermidis MRO 02002
readout: MIC (mg/L)

Below, 4 compounds whose answers are already recorded.
- COC(=O)NC[C@H]1CN(c2ccc(N3CCN(c4ccc(/C=C5\SC(=O)NC5=O)cc4)CC3)c(F)c2)C(=O)O1: 2
- CC(=O)NC[C@H]1CN(c2ccc(N3CCN(c4ccc(/C=C5/SC(=S)N(CC(=O)O)C5=O)cc4)CC3)c(F)c2)C(=O)O1: 2
- CC(=O)NC[C@H]1CN(c2ccc(N3CCN(c4ccc(/C=C5/SC(=O)NC5=O)cc4)CC3)c(F)c2)C(=O)O1: 1
- CC(=O)NC[C@H]1CN(c2ccc(N3CCN(c4ccc(CC5C(=O)Nc6ccccc65)cc4)CC3)c(F)c2)C(=O)O1 (stereo partly shown): 4

[a] COC(=O)NC[C@H]1CN(c2ccc(N3CCN(c4ccc(CC5C(=O)Nc6ccccc65)cc4)CC3)c(F)c2)C(=O)O1 (stereo partly shown)
[b] CC(=O)NC[C@H]1CN(c2ccc(N3CCN(c4ccc(/C=C5/SC(=S)NC5=O)cc4)CC3)c(F)c2)C(=O)O1
Query string: Determine, for a and b , which has the greater value of MIC. Write down the label of the entry you select.
Result string: a
(a: 4 mg/L, b: 1 mg/L)

###

System: S. aureus MRO 00001
readout: MIC (µg/mL)

* COC(=O)NC[C@H]1CN(c2ccc(N3CCN(c4ccc(/C=C5/SC(=S)N(CC(=O)O)C5=O)cc4)CC3)c(F)c2)C(=O)O1 [Example 10] | 8

[a] COC(=O)NC[C@H]1CN(c2ccc(N3CCN(c4ccc(CC5SC(=O)NC5=O)cc4)CC3)c(F)c2)C(=O)O1 (stereo partly drawn) [Example 14]
[b] COC(=O)NC[C@H]1CN(c2ccc(N3CCN(c4ccc(CC5C(=O)Nc6ccccc65)cc4)CC3)c(F)c2)C(=O)O1 (stereo partly drawn) [Example 17]
Query string: Determine, for a and b , which has the greater value of MIC. Write down the label of the entry you select.
Result string: a

###

MIC values recorded for S. aureus MRO 00001
readout: MIC (µg/mL)

* COC(=S)NC[C@H]1CN(c2ccc(N3CCN(c4ccc(/C=C5\SC(=O)NC5=O)cc4)CC3)c(F)c2)C(=O)O1 | 0.5
* COC(=O)NC[C@H]1CN(c2ccc(N3CCN(c4ccc(/C=C5\SC(=O)NC5=O)cc4)CC3)c(F)c2)C(=O)O1 | 1
* CC(=O)NC[C@H]1CN(c2ccc(N3CCN(c4ccc(/C=C5/SC(=S)NC5=O)cc4)CC3)c(F)c2)C(=O)O1 | 1

[P] CC(=O)NC[C@H]1CN(c2ccc(N3CCN(c4ccc(/C=C5/SC(=O)NC5=O)cc4)CC3)c(F)c2)C(=O)O1
[Q] CC(=O)NC[C@H]1CN(c2ccc(N3CCN(c4ccc(CC5SC(=O)NC5=O)cc4)CC3)c(F)c2)C(=O)O1 (some centres unmarked)
[R] CC(=O)NC[C@H]1CN(c2ccc(N3CCN(c4ccc(/C=C5/SC(=S)N(CC(=O)O)C5=O)cc4)CC3)c(F)c2)C(=O)O1
[S] CC(=O)NC[C@H]1CN(c2ccc(N3CCN(c4ccc(CC5C(=O)Nc6ccccc65)cc4)CC3)c(F)c2)C(=O)O1 (some centres unmarked)
Query string: Put these in order: smallest MIC first, largest last. Response field: labels, in requested order.
Result string: P, R, S, Q

###

System: S. epidermidis MRO 02002
Assay: Antimicrobial testing, Agar Dilution Method (NCCLS), MIC
Type: cell-based
Settings: Staphylococcus epidermidis, MRO02002, Mueller Hinton Agar, 35° C., 20 hours, read-out: Antimicrobial Screening (MIC) S. epidermidis MRO 02002
readout: MIC (µg/mL)

Below, 3 compounds whose answers are already recorded.
* COC(=O)NC[C@H]1CN(c2ccc(N3CCN(c4ccc(CC5SC(=O)NC5=O)cc4)CC3)c(F)c2)C(=O)O1 (stereo partly shown) | 8
* COC(=S)NC[C@H]1CN(c2ccc(N3CCN(c4ccc(/C=C5\SC(=O)NC5=O)cc4)CC3)c(F)c2)C(=O)O1 | 0.5
* COC(=O)NC[C@H]1CN(c2ccc(N3CCN(c4ccc(/C=C5/SC(=S)N(CC(=O)O)C5=O)cc4)CC3)c(F)c2)C(=O)O1 | 8

[a] CC(=O)NC[C@H]1CN(c2ccc(N3CCN(c4ccc(C=O)cc4)CC3)c(F)c2)C(=O)O1
[b] CC(=O)NC[C@H]1CN(c2ccc(N3CCN(c4ccc(CC5SC(=O)NC5=O)cc4)CC3)c(F)c2)C(=O)O1 (stereo partly shown)
Query string: Determine, for a and b , which has the greater value of MIC. Write down the label of the entry you select.
Result string: b
(b: 8 µg/mL, a: 1 µg/mL)
